- ASSAYED TARGET: Coagulation Factor Xa, from uman plasma (Homo sapiens, UniProt P00742)
- Sequence (P00742 235-488 limits assumed): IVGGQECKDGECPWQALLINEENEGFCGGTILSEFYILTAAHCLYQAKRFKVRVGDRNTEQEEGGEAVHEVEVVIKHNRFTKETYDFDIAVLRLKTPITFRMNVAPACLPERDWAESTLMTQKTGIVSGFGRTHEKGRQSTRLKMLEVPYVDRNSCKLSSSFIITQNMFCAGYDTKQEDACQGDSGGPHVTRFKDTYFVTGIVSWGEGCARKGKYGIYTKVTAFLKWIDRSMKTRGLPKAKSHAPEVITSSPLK
- Sequence (P00742 41-179 limits assumed): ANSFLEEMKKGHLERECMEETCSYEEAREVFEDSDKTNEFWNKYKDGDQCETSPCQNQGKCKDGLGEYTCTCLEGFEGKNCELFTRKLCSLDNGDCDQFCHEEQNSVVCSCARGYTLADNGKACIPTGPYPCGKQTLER
- ASSAY NOTES: Enzymatic assay, coagulation factor Xa
Where a SMILES comes first, the peptide text is derived from it.
The threshold is inclusive: FXa at 100 μM % of exactly 10% counts as 1; values below receive 0.

The following molecules have reported results that may help.
INSERT INTO assay_data (molecule, assigned_label) VALUES
  ('CCCC[C@@H]1NC(=O)[C@H](Cc2ccccc2)NC(=O)[C@H]2CCCN2C(=O)[C@H](Cc2ccc(O)cc2)NC(=O)[C@@H]2CSSC[C@H](NC1=O)C(=O)N[C@@H]([C@@H](C)O)C(=O)N[C@@H](C)C(=O)N[C@@H](CO)C(=O)N[C@@H]([C@@H](C)CC)C(=O)N1CCC[C@H]1C(=O)N1CCC[C@H]1C(=O)N[C@@H](CCC(N)=O)C(=O)N2 [Ex. 122] (HELM PEPTIDE1{[Nle].C.T.A.S.I.P.P.Q.C.Y.[dP].F}$PEPTIDE1,PEPTIDE1,2:R3-10:R3|PEPTIDE1,PEPTIDE1,1:R1-13:R2$$$V2.0)', 1),
  ('CCCCCCCC[C@@H]1NC(=O)[C@@H]2CCCN2C(=O)[C@H]2CCCN2C(=O)[C@H](Cc2ccc(O)cc2)NC(=O)[C@H](CCCCN)NC(=O)[C@H](CCC(N)=O)NC(=O)[C@@H]2CCCN2C(=O)[C@@H]2CCCN2C(=O)[C@H]([C@@H](C)CC)NC(=O)[C@H](CO)NC(=O)[C@H](C)NC(=O)[C@H]([C@@H](C)O)NC(=O)[C@H](CCC(=O)O)NC1=O [Ex. 156] (HELM PEPTIDE1{[CCCCCCCC[C@H](N[*:1])C(=O)[*:2]].E.T.A.S.I.P.P.Q.K.Y.[dP].P}$PEPTIDE1,PEPTIDE1,1:R1-13:R2$$$V2.0)', 0),
  ('CCCC[C@@H]1NC(=O)[C@@H]2CCCN2C(=O)[C@H]2CCCN2C(=O)[C@H](Cc2ccc(O)cc2)NC(=O)[C@@H]2CSSC[C@H](NC1=O)C(=O)N[C@@H]([C@@H](C)O)C(=O)N[C@@H](C)C(=O)N[C@@H](CO)C(=O)N[C@@H]([C@@H](C)CC)C(=O)N1CCC[C@H]1C(=O)N1CC(NC(=O)c3ccccc3)C[C@H]1C(=O)N[C@@H](CCC(N)=O)C(=O)N2 (single isomer, unassigned) [Ex. 138]', 1),
  ('CCCC[C@@H]1NC(=O)[C@H]([C@@H](C)O)NC(=O)[C@@H]2CSSC[C@H](NC(=O)[C@H]([C@@H](C)CC)NC(=O)[C@@H]3CCCN3C(=O)[C@@H]3CCCN3C(=O)[C@H](CC(=O)O)NC(=O)[C@H](CO)NC1=O)C(=O)N[C@@H](Cc1ccc(O)cc1)C(=O)N1CCC[C@@H]1C(=O)N1CCC[C@H]1C(=O)N[C@@H](Cc1ccccc1)C(=O)N2 [Ex. 60] (HELM PEPTIDE1{F.C.T.[Nle].S.D.P.P.I.C.Y.[dP].P}$PEPTIDE1,PEPTIDE1,2:R3-10:R3|PEPTIDE1,PEPTIDE1,1:R1-13:R2$$$V2.0)', 1);

**Query** Reported FXa at 100 μM % at or above 10%? CCCC[C@@H]1NC(=O)[C@@H]2CCCN2C(=O)[C@H]2CCCN2C(=O)[C@H](Cc2ccccc2)NC(=O)[C@@H]2CSSC[C@H](NC1=O)C(=O)N[C@@H]([C@@H](C)O)C(=O)N[C@@H](C)C(=O)N[C@@H](CO)C(=O)N[C@@H]([C@@H](C)CC)C(=O)N1CCC[C@H]1C(=O)N1CCC[C@H]1C(=O)N[C@@H](CCC(N)=O)C(=O)N2 [Ex. 90] (HELM PEPTIDE1{[Nle].C.T.A.S.I.P.P.Q.C.F.[dP].P}$PEPTIDE1,PEPTIDE1,2:R3-10:R3|PEPTIDE1,PEPTIDE1,1:R1-13:R2$$$V2.0)
**Result** 0

====

- ASSAYED TARGET: CathepsinG, from human neutrophils (Homo sapiens, UniProt P08311)
- Sequence (P08311 21-244): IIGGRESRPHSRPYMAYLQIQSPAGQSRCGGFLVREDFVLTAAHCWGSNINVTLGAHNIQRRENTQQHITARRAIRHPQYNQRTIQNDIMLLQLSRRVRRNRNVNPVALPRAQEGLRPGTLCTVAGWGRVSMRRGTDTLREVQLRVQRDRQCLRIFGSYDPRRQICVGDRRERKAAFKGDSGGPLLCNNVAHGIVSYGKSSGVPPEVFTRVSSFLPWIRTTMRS
- ASSAY NOTES: Enzymatic assay, cathepsin G
- MEASUREMENT CONDITIONS: Cathepsin G IC50
Where a SMILES comes first, the peptide text is derived from it.
I'd appreciate it if you could supply IC50 values for the items below.
One number for each entry, in µM.

INSERT INTO measurements (compound, readout_number) VALUES
  ('CCCC[C@@H]1NC(=O)[C@H](C(C)C)NC(=O)[C@H]2CCCN2C(=O)[C@H](Cc2ccc(O)cc2)NC(=O)[C@@H]2CSSC[C@H](NC1=O)C(=O)N[C@@H]([C@@H](C)O)C(=O)N[C@@H](C)C(=O)N[C@@H](CO)C(=O)N[C@@H]([C@@H](C)CC)C(=O)N1CCC[C@H]1C(=O)N1CCC[C@H]1C(=O)N[C@@H](CCC(N)=O)C(=O)N2 [Ex. 125] (HELM PEPTIDE1{[Nle].C.T.A.S.I.P.P.Q.C.Y.[dP].V}$PEPTIDE1,PEPTIDE1,2:R3-10:R3|PEPTIDE1,PEPTIDE1,1:R1-13:R2$$$V2.0)', 18.3);

Then this compound:
The value of IC50 measured for the compound CC(C)C[C@@H]1NC(=O)[C@H](CO)NC(=O)[C@H](CCCCN)NC(=O)[C@H]([C@@H](C)O)NC(=O)[C@@H]2CSSC[C@H](NC(=O)[C@H](CCCCN)NC(=O)[C@@H]3CCCN3C(=O)[C@@H]3CCCN3C1=O)C(=O)N[C@@H](CCCNC(=N)N)C(=O)N1CCC[C@@H]1C(=O)N1CCC[C@H]1C(=O)N[C@@H](CC1CCCCC1)C(=O)N2 [Ex. 193] (HELM PEPTIDE1{[Cha].C.T.K.S.L.P.P.K.C.R.[dP].P}$PEPTIDE1,PEPTIDE1,2:R3-10:R3|PEPTIDE1,PEPTIDE1,1:R1-13:R2$$$V2.0) turned out to be 0.431

====

- Tested on: HELA cells (Acc57)
- ASSAY NOTES: Cytotoxicity assay (MTT reduction), HELA cells
- Assay type: cell-based
- MEASUREMENT CONDITIONS: Hela cells
Where a SMILES comes first, the peptide text is derived from it.
ENDPOINT LABEL: Cytotoxicity LC50/GI50 Hela cells (µM)
Answers are plain numbers, in µM.

Recorded Cytotoxicity LC50/GI50 Hela cells for CC[C@H](C)[C@@H]1NC(=O)[C@@H]2CCCN2C(=O)[C@@H]2CCCN2C(=O)[C@H](CC(=O)O)NC(=O)[C@H](CO)NC(=O)[C@H](CCCCN)NC(=O)[C@H]([C@@H](C)O)NC(=O)[C@@H]2CSSC[C@H](NC1=O)C(=O)N[C@@H]([C@@H](C)O)C(=O)N1CCC[C@@H]1C(=O)N1CCC[C@H]1C(=O)N[C@@H](C1CCCCC1)C(=O)N2 [Ex. 38] (HELM PEPTIDE1{[O=C([C@@H](N[*:1])C1CCCCC1)[*:2]].C.T.K.S.D.P.P.I.C.T.[dP].P}$PEPTIDE1,PEPTIDE1,2:R3-10:R3|PEPTIDE1,PEPTIDE1,1:R1-13:R2$$$V2.0) on HELA cells (Acc57) was 100

====

- ASSAYED TARGET: Thrombin, from Human Plasma (Homo sapiens)
- ASSAY NOTES: Enzymatic assay, thrombin
Where a SMILES comes first, the peptide text is derived from it.
Provide the recorded Thrombin at 100 μM % for the entries that follow.
One number for each entry, in %.

INSERT INTO measurements (compound, unit_of_measure, readout_number) VALUES
  ('CC[C@H](C)[C@@H]1NC(=O)[C@@H]2CCCN2C(=O)[C@H]2CCCN2C(=O)[C@H](CCCNC(=N)N)NC(=O)[C@@H]2CSSC[C@H](NC1=O)C(=O)N[C@@H]([C@@H](C)O)C(=O)N[C@@H](CCCCN)C(=O)N[C@@H](CO)C(=O)N[C@@H](CC(=O)O)C(=O)N1CCC[C@H]1C(=O)N1CCC[C@H]1C(=O)N[C@@H](CCC(N)=O)C(=O)N2 [Ex. 17] (HELM PEPTIDE1{I.C.T.K.S.D.P.P.Q.C.R.[dP].P}$PEPTIDE1,PEPTIDE1,2:R3-10:R3|PEPTIDE1,PEPTIDE1,1:R1-13:R2$$$V2.0)', '%', 0);

# Thrombin at 100 μM % (compound: CC[C@H](C)[C@@H]1NC(=O)[C@H](CO)NC(=O)[C@H](C)NC(=O)[C@H]([C@@H](C)O)NC(=O)[C@@H]2CSSC[C@H](NC(=O)[C@H](CCC(N)=O)NC(=O)[C@@H]3CCCN3C(=O)[C@@H]3CCCN3C1=O)C(=O)N[C@@H](CCC(N)=O)C(=O)N1CCC[C@@H]1C(=O)N1CCC[C@H]1C(=O)N[C@@H](CCc1ccccc1)C(=O)N2 [Ex. 143] (HELM PEPTIDE1{[O=C([C@H](CCc1ccccc1)N[*:1])[*:2]].C.T.A.S.I.P.P.Q.C.Q.[dP].P}$PEPTIDE1,PEPTIDE1,2:R3-10:R3|PEPTIDE1,PEPTIDE1,1:R1-13:R2$$$V2.0) ) is 12
